# ASSAY_TARGET: Activin receptor type-1B (Homo sapiens, UniProt P36896)
# Sequence (P36896 whole entry): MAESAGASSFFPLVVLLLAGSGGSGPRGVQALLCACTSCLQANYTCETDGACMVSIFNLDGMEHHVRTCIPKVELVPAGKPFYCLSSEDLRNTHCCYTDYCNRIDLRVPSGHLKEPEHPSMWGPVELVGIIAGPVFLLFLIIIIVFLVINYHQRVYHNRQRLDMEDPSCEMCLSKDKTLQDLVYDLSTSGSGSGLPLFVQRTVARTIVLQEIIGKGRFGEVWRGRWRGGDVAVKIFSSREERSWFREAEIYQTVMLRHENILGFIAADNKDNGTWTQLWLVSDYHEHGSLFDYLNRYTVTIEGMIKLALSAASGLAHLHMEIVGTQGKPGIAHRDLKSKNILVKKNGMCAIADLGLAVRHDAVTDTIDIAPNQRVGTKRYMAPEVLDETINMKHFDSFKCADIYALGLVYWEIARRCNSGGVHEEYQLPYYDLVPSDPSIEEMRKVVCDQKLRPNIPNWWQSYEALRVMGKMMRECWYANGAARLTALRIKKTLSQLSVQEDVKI
# ASSAY: Inhibition of ALK4 (unknown origin)
# TEST_CONDITIONS: read-out: IC50
MEASURE_NAME: pIC50
Bear in mind: pIC50 is minus log10 of a mol/L concentration; give just that figure.

| COMPOUND_SMILES | ASSAY_TARGET | OBS_VALUE |
| --- | --- | --- |
| c1cc(-c2cnn3cc(-c4ccc(N5CCNCC5)cc4)cnc23)c2cccnc2c1 | Activin receptor type-1B (Homo sapiens, UniProt P36896) | 5.39 |
| c1cc(N2CCOCC2)ccc1-c1cnc2c(-c3cn[nH]c3)cnn2c1 | Activin receptor type-1B (Homo sapiens, UniProt P36896) | 5.23 |

Query: Could you share which pIC50 value was measured for `CC(C)Oc1ccc(-c2cnc3c(-c4ccnc5ccccc45)cnn3c2)cc1` ?
Response: 5.02

Query: Could you share which pIC50 value was measured for `COc1ccc(-c2cnc3c(-c4ccnc5ccccc45)cnn3c2)cc1` ?
Response: 5.74

Query: Could you share which pIC50 value was measured for `c1cc(N2CCNCC2)ccc1-c1cnc2c(-c3cn[nH]c3)cnn2c1` ?
Response: 5.47

Query: Could you share which pIC50 value was measured for `CN1CCN(c2ccc(-c3cnc4c(-c5ccnc6ccccc56)cnn4c3)cc2)CC1` ?
Response: 6.74

Query: Could you share which pIC50 value was measured for `c1cc(-c2cnn3cc(-c4ccc(OCCN5CCCCC5)cc4)cnc23)ccn1` ?
Response: 4.59

Query: Could you share which pIC50 value was measured for `c1ccc2c(-c3cnn4cc(-c5ccc(N6CCOCC6)cc5)cnc34)ccnc2c1` ?
Response: 6.49
